The reported numbers originate from paper PMC6264142.

- target-entity: UniProt P04585
Please respond with reported log10 IC50 for every item in the list.
// stored as log10 of IC50 expressed in µM

Some solved entries appear below for comparison.
compound: COc1cccc2c1c(C(=O)C=C(O)C(=O)O)cn2Cc1cccc(C)c1
parameter-measured: log10 IC50
observed-result: -0.38
--
compound: COc1cccc2c1c(C(=O)C=C(O)C(=O)O)cn2Cc1ccc(C)cc1C
parameter-measured: log10 IC50
observed-result: 1.71
--
compound: COc1cccc2c1c(C(=O)C=C(O)C(=O)O)cn2Cc1cc(C)c(F)c(C)c1
parameter-measured: log10 IC50
observed-result: 0.34
--
compound: COc1cccc2c1c(C(=O)C=C(O)C(=O)O)cn2Cc1ccc(C)cc1
parameter-measured: log10 IC50
observed-result: 0.76
--
compound: COc1cccc2c1c(C(=O)/C=C(\O)C(=O)O)cn2Cc1ccc(F)cc1 [CHI-1043, reference compound]
parameter-measured: log10 IC50
observed-result: -1.10

Hi, could you look up log10 IC50 for each item in my list?
1. COc1cccc2c1c(C(=O)C=C(O)C(=O)O)cn2Cc1c(C)cccc1C
2. COc1cccc2c1c(C(=O)C=C(O)C(=O)O)cn2Cc1cccc(C)c1C
3. COc1cccc2c1c(C(=O)C=C(O)C(=O)O)cn2Cc1ccccc1C
4. COc1cccc2c1c(C(=O)C=C(O)C(=O)O)cn2Cc1cc(C)cc(C)c1

Completion:
[0.87, 0.42, 0.24, 0.89]

Form field log10 IC50, entry COc1cccc2c1c(C(=O)C=C(O)C(=O)O)cn2Cc1cc(C)ccc1C : 0.58

----------
parameter-measured: melting point

Please review the entries below; each comes with its answer.
compound: COc1cccc2c1c(C(=O)C=C(O)C(=O)O)cn2Cc1cccc(C)c1C [Compound 7d]
melting point: 160 to 162 °C

compound: COc1cccc2c1c(C(=O)C=C(O)C(=O)O)cn2Cc1cc(C)ccc1C [Compound 7f]
melting point: 163 to 165 °C

compound: COc1cccc2c1c(C(=O)C=C(O)C(=O)O)cn2Cc1cccc(C)c1 [Compound 7b]
melting point: 150 to 152 °C

Please report melting point for every entry that follows.
1. COc1cccc2c1c(C(=O)C=C(O)C(=O)O)cn2Cc1cc(C)cc(C)c1 [Compound 7h]
2. COc1cccc2c1c(C(=O)C=C(O)C(=O)O)cn2Cc1cc(C)c(F)c(C)c1 [Compound 7i]

Completion:
120 to 122 °C
153 to 155 °C

Please give melting point, item by item, for the list that follows.
1. COc1cccc2c1c(C(=O)C=C(O)C(=O)O)cn2Cc1ccccc1C [Compound 7a]
2. COc1cccc2c1c(C(=O)C=C(O)C(=O)O)cn2Cc1c(C)cccc1C [Compound 7g]
3. COc1cccc2c1c(C(=O)C=C(O)C(=O)O)cn2Cc1ccc(C)cc1 [Compound 7c]
4. COc1cccc2c1c(C(=O)C=C(O)C(=O)O)cn2Cc1ccc(C)cc1C [Compound 7e]

Completion:
1. 164 to 166 °C
2. 173 to 175 °C
3. 141 to 143 °C
4. 143 to 145 °C

----------
- target-entity: HIV-1 integrase (strand transfer step) (Human immunodeficiency virus type 1 group M subtype B, UniProt P04585)
Rule: measured IC50 below 9 µM gets satisfied; anything equal to or greater than 9 µM gets not satisfied.

These recorded examples may help you get a feel for the data.
compound: COc1cccc2c1c(C(=O)C=C(O)C(=O)O)cn2Cc1cc(C)cc(C)c1
classification: satisfied
--
compound: COc1cccc2c1c(C(=O)C=C(O)C(=O)O)cn2Cc1ccccc1C
classification: satisfied
--
compound: COc1cccc2c1c(C(=O)C=C(O)C(=O)O)cn2Cc1cc(C)c(F)c(C)c1
classification: satisfied
--
compound: COc1cccc2c1c(C(=O)C=C(O)C(=O)O)cn2Cc1cccc(C)c1
classification: satisfied
--
compound: COc1cccc2c1c(C(=O)C=C(O)C(=O)O)cn2Cc1cc(C)ccc1C
classification: not satisfied

Prompt: Hello, is IC50 of the following compound strictly smaller than 9 µM? COc1cccc2c1c(C(=O)/C=C(\O)C(=O)O)cn2Cc1ccc(F)cc1 [CHI-1043, reference compound]
Completion: satisfied

Prompt: Determine if COc1cccc2c1c(C(=O)C=C(O)C(=O)O)cn2Cc1ccc(C)cc1C shows IC50 strictly lower than 9 µM.
Completion: not satisfied

Prompt: Please determine if COc1cccc2c1c(C(=O)C=C(O)C(=O)O)cn2Cc1cccc(C)c1C is below 9 µM in terms of IC50.
Completion: satisfied

Prompt: State whether 9 µM exceeds IC50 recorded for COc1cccc2c1c(C(=O)C=C(O)C(=O)O)cn2Cc1c(C)cccc1C .
Completion: not satisfied
